- System: Escherichia coli
- method_summary: Antibacterial activity against Escherichia coli was determined at 0.5 mg/mL concentration
- Format: functional
List of inhibition at 500 µg/mL values.
The reply should be a number in %, with the unit left off.

// known answers, use as guide
> print(dat)
                            chemical.string  recorded.value
1  Cc1nn(-c2ccc([N+](=O)[O-])cc2[N+](=O)[O-])cc1C(=O)OC(C)(C)C            52.2
2  CCOC(=O)c1cn(-c2ccc([N+](=O)[O-])cc2[N+](=O)[O-])nc1CCl            51.1
3  CCOC(=O)c1cn(-c2ccc([N+](=O)[O-])cc2[N+](=O)[O-])nc1-c1ccc(Cl)cc1            52.2
4  Cc1nn(-c2ccc([N+](=O)[O-])cc2[N+](=O)[O-])cc1C(=O)OCc1ccccc1            54.4
5  CCOC(=O)c1cn(-c2ccc([N+](=O)[O-])cc2[N+](=O)[O-])nc1C            86.7

Exercise: May I ask what inhibition at 500 µg/mL has been recorded for `CCOC(=O)c1cn(-c2ccc([N+](=O)[O-])cc2[N+](=O)[O-])nc1-c1ccccc1` ?
Key: 80

Exercise: Query `CCOC(=O)c1cn(-c2ccc([N+](=O)[O-])cc2[N+](=O)[O-])nc1-c1ccccc1F` next
Key: 56.7

Exercise: Query `CCOC(=O)c1nn(-c2ccc([N+](=O)[O-])cc2[N+](=O)[O-])cc1C=O` next
Key: 97.8

* * *

- Test system: Alternaria alternata
- method_summary: Antifungal activity against Alternaria alternata was measured as mycelial growth at 0.5 mg/mL concentration
- Assay type: functional
measured_endpoint: Mycelial growth (cm)
The reply should be a number in cm, with the unit left off.

// known answers, use as guide
> print(dat)
                            chemical.string  unit.descriptor  recorded.value
1  Cc1nn(-c2ccc([N+](=O)[O-])cc2[N+](=O)[O-])cc1C(=O)OC(C)(C)C               cm             5.1
2  CCOC(=O)c1nn(-c2ccc([N+](=O)[O-])cc2[N+](=O)[O-])cc1C=O               cm             2.1

Exercise: May I ask what Mycelial growth has been recorded for `CCOC(=O)c1cn(-c2ccc([N+](=O)[O-])cc2[N+](=O)[O-])nc1-c1ccccc1F` ?
Key: 3.4

* * *

List of inhibition at 500 µg/mL values.
- Test system: Alternaria alternata
- method_summary: Antifungal activity against Alternaria alternata was determined at 0.5 mg/mL concentration
- Type: functional

// known answers, use as guide
> print(dat)
                            chemical.string  recorded.value
1  CCOC(=O)c1nn(-c2ccc([N+](=O)[O-])cc2[N+](=O)[O-])cc1C=O           76.6%
2  CCOC(=O)c1cn(-c2ccc([N+](=O)[O-])cc2[N+](=O)[O-])nc1CCl           46.7%
3  CCOC(=O)c1cn(-c2ccc([N+](=O)[O-])cc2[N+](=O)[O-])nc1-c1ccccc1           57.8%
4  CCOC(=O)c1cn(-c2ccc([N+](=O)[O-])cc2[N+](=O)[O-])nc1-c1ccc(Cl)cc1           53.3%
5  Cc1nn(-c2ccc([N+](=O)[O-])cc2[N+](=O)[O-])cc1C(=O)OCc1ccccc1           53.3%

Exercise: May I ask what inhibition at 500 µg/mL has been recorded for `CCOC(=O)c1cn(-c2ccc([N+](=O)[O-])cc2[N+](=O)[O-])nc1C` ?
Key: 46.7%

Exercise: Query `Cc1nn(-c2ccc([N+](=O)[O-])cc2[N+](=O)[O-])cc1C(=O)OC(C)(C)C` next
Key: 43.3%

Exercise: Query `CCOC(=O)c1cn(-c2ccc([N+](=O)[O-])cc2[N+](=O)[O-])nc1-c1ccccc1F` next
Key: 62.2%

Data credit: ChEMBL document CHEMBL1137069
